- target: rat mGluR1a receptor (Rattus norvegicus)
- Sequence (P23385 19-1199): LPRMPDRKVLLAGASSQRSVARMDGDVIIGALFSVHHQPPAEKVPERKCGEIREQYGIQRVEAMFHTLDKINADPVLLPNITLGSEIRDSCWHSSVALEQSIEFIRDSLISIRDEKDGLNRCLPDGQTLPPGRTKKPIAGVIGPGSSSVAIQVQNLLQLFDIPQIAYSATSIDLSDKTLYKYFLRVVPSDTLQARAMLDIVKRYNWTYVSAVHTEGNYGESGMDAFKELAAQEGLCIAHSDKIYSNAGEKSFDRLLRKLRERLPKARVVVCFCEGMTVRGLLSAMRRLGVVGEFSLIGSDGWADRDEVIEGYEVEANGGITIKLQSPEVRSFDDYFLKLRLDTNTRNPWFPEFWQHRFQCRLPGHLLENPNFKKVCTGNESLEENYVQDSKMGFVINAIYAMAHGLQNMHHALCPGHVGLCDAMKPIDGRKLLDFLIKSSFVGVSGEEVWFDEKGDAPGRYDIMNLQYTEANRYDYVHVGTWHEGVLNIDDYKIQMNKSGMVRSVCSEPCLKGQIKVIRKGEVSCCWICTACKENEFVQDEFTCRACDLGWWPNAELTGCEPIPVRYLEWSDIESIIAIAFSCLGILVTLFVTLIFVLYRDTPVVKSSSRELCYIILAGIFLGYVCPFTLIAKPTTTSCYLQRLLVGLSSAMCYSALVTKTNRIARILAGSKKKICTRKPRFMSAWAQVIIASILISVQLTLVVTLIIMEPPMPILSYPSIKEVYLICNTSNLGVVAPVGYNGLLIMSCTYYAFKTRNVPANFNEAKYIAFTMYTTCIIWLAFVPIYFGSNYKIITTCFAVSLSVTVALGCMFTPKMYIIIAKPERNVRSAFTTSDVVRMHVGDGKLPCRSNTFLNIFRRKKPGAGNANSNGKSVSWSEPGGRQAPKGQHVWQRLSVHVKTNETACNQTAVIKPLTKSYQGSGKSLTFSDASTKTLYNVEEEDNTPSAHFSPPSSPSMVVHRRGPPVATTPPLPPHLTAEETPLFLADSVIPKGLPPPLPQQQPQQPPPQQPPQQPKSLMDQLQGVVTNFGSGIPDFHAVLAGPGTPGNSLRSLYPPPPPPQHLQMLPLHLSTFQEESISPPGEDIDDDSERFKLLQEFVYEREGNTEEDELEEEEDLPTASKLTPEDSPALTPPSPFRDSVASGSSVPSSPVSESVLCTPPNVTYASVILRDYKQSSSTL
measurement-name: pIC50
Please express pIC50 as -log10 of the molar concentration.

Give rat mGluR1a receptor (Rattus norvegicus) pIC50 for the following molecule: CC(O)CNc1nnc(C#N)c(N2CCc3ccccc3CC2)n1 (racemic) 7.57

====

- target: rat mGluR1a receptor (Rattus norvegicus)
Could you mark each record Yes if its IC50 falls strictly under 30 nM, and No if it equals or exceeds it?

Here's what some known entries look like.
N#Cc1nnc(NCCc2cccnc2)nc1N1CCc2ccccc2CC1 ... Yes
N#Cc1nnc(N)nc1N1CCc2ccccc2CC1 ... Yes

Given the entry "N#Cc1ncc(NCCO)nc1N1CCc2ccccc2CC1" , would its reported IC50 be below 30 nM? No

Hi there! Is IC50 for "N#Cc1nnc(NCCO)nc1N1CCc2ccccc2CC1" below 30 nM, do you know? No

# check: IC50 < 30 nM for "CC(C)(C)OC(=O)NCCNc1nnc(C#N)c(N2CCc3ccccc3CC2)n1" Yes

IC50 strictly < 30 nM for this compound? "N#Cc1nnc(NN)nc1N1CCc2ccccc2CC1" No

Here's an entry: "N#Cc1nnc(NCC2CC2)nc1N1CCc2ccccc2CC1" . Is its IC50 below 30 nM? Yes
